MIC values by entry
# Test system: Staphylococcus aureus SA1199B
# Assay type: cell-based

# COMPOUND, SIGN, MIC (µg/mL)
rows = [
    ("CNC(CC(C)C)C(=O)NC1C(=O)NC(CC(N)=O)C(=O)NC2C(=O)NC3C(=O)NC(C(=O)NC(C(=O)O)c4cc(O)cc(O)c4-c4cc3ccc4O)C(OC3CC(C)(N)C(O)C(C)O3)c3ccc(c(Cl)c3)Oc3cc2cc(c3OC2OC(CO)C(O)C(O)C2OC2CC(C)(NCCCc3ccc(OC)cc3)C(O)C(C)O2)Oc2ccc(cc2Cl)C1O (centres unmarked)", "≤", 0.06),
    ("CNC(CC(C)C)C(=O)NC1C(=O)NC(CC(N)=O)C(=O)NC2C(=O)NC3C(=O)NC(C(=O)NC(C(=O)O)c4cc(O)cc(O)c4-c4cc3ccc4O)C(OC3CC(C)(N)C(O)C(C)O3)c3ccc(c(Cl)c3)Oc3cc2cc(c3OC2OC(CO)C(O)C(O)C2OC2CC(C)(NCCc3ccccc3OCc3ccccc3)C(O)C(C)O2)Oc2ccc(cc2Cl)C1O (centres unmarked)", "=", 0.5),
]

====

Recorded measurements of MIC, one per entry
# System: Staphylococcus aureus 447
# EXPERIMENT_DESCRIPTION: broth micro-dilution MIC
# Format: cell-based
ENDPOINT: MIC

# COMPOUND, RESULT
records = [
    ("CNC(CC(C)C)C(=O)NC1C(=O)NC(CC(N)=O)C(=O)NC2C(=O)NC3C(=O)NC(C(=O)NC(C(=O)O)c4cc(O)cc(O)c4-c4cc3ccc4O)C(OC3CC(C)(N)C(O)C(C)O3)c3ccc(c(Cl)c3)Oc3cc2cc(c3OC2OC(CO)C(O)C(O)C2OC2CC(C)(NCc3ccc(Oc4ccc(Cl)cc4)cc3)C(O)C(C)O2)Oc2ccc(cc2Cl)C1O (stereo not drawn) [Compound 240]", "0.5 mg/L"),
    ("CNC(CC(C)C)C(=O)NC1C(=O)NC(CC(N)=O)C(=O)NC2C(=O)NC3C(=O)NC(C(=O)NC(C(=O)O)c4cc(O)cc(O)c4-c4cc3ccc4O)C(OC3CC(C)(N)C(O)C(C)O3)c3ccc(c(Cl)c3)Oc3cc2cc(c3OC2OC(CO)C(O)C(O)C2OC2CC(C)(NCc3ccc(O)c(O)c3)C(O)C(C)O2)Oc2ccc(cc2Cl)C1O (stereo not drawn) [Compound 145]", "1 mg/L"),
    ("CC(C)CC(C(=O)NC1C(=O)NC(CC(N)=O)C(=O)NC2C(=O)NC3C(=O)NC(C(=O)NC(C(=O)O)c4cc(O)cc(O)c4-c4cc3ccc4O)C(OC3CC(C)(N)C(O)C(C)O3)c3ccc(c(Cl)c3)Oc3cc2cc(c3OC2OC(CO)C(O)C(O)C2OC2CC(C)(NCc3ccncc3)C(O)C(C)O2)Oc2ccc(cc2Cl)C1O)N(C)Cc1ccncc1 (stereo not drawn) [Compound 274]", "16 mg/L"),
]

====

# Tested on: vancomycin-resistant enterococci
# EXPERIMENT_DESCRIPTION: broth micro-dilution, mean geometric MIC
# Type: cell-based, Enterococcus faecium and Enterococcus faecalis
# ASSAY_CONTEXT: enterococci, 24-hour incubation
ENDPOINT: mean geometric MIC, Vancomycin Resistant Strains (mg/L)

# COMPOUND, ASSAYED_TARGET, READOUT_NUMBER
rows = [
    ("CNC(CC(C)C)C(=O)NC1C(=O)NC(CC(N)=O)C(=O)NC2C(=O)NC3C(=O)NC(C(=O)NC(C(=O)O)c4cc(O)cc(O)c4-c4cc3ccc4O)C(OC3CC(C)(N)C(O)C(C)O3)c3ccc(c(Cl)c3)Oc3cc2cc(c3OC2OC(CO)C(O)C(O)C2OC2CC(C)(NCc3ccncc3)C(O)C(C)O2)Oc2ccc(cc2Cl)C1O (stereo not drawn) [Compound 26]", "vancomycin-resistant enterococci", 54),
    ("CNC(CC(C)C)C(=O)NC1C(=O)NC(CC(N)=O)C(=O)NC2C(=O)NC3C(=O)NC(C(=O)NC(C(=O)O)c4cc(O)cc(O)c4-c4cc3ccc4O)C(OC3CC(C)(N)C(O)C(C)O3)c3ccc(c(Cl)c3)Oc3cc2cc(c3OC2OC(CO)C(O)C(O)C2OC2CC(C)(NCc3ccc(-c4cccs4)cc3)C(O)C(C)O2)Oc2ccc(cc2Cl)C1O (stereo not drawn) [Compound 218]", "vancomycin-resistant enterococci", 1.0),
    ("CCCCCOc1ccc(-c2ccc(CNC3(C)CC(OC4C(Oc5c6cc7cc5Oc5ccc(cc5Cl)C(OC5CC(C)(N)C(O)C(C)O5)C5NC(=O)C(NC(=O)C7NC(=O)C(CC(N)=O)NC(=O)C(NC(=O)C(CC(C)C)NC)C(O)c7ccc(c(Cl)c7)O6)c6ccc(O)c(c6)-c6c(O)cc(O)cc6C(C(=O)O)NC5=O)OC(CO)C(O)C4O)OC(C)C3O)cc2)cc1 (stereo not drawn) [Compound 40]", "vancomycin-resistant enterococci", 0.50),
]

These data points were gathered from patent US5840684A.
